Form field: inhibition (one value per entry).
# assay_protocol: kanamycin survival loss of SKKanGAS strain – BacTiter-Glo luminescence, streptokinase expression inhibitor project, primary screen (AID 1662);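 note: strain carries kanamycin resistance gene driven by streptokinase promoter and grows in 40 µg/ml kanamycin; loss of luminescence reflects streptokinase promoter inhibition or plain growth inhibition; 0% = median of DMSO wells and 100% = positive control at its reference dose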
# condition_notes: S. pyogenes SKKanGAS, kanamycin growth, 6 h, at 7.5 µM, hits give high values
Out of some 300,000 compounds screened, about 4,000 (1.3%) were called active. The full list was thinned out, with actives kept by preference.
measured_metric: inhibition (%)

> print(dat)
                                  structure  recorded.number
1  O=C(NC1CCN(C(=S)NCc2ccco2)CC1)c1ccc(F)cc1             13.3
2      C/[N+]([O-])=C\c1ccc([N+](=O)[O-])o1             1.43
3  FC(F)(F)c1cc(-c2ccco2)nc(NCc2ccc(Cl)cc2)n1             65.4

====

# assay_protocol: kanamycin survival loss of SKKanGAS strain – BacTiter-Glo luminescence, streptokinase expression inhibitor project, primary screen (AID 1662);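 note: strain carries kanamycin resistance gene driven by streptokinase promoter and grows in 40 µg/ml kanamycin; loss of luminescence reflects streptokinase promoter inhibition or plain growth inhibition; 0% = median of DMSO wells and 100% = positive control at its reference dose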
# condition_notes: S. pyogenes SKKanGAS, kanamycin growth, 6 h, at 7.5 µM, hits give high values
Among all 300,000 compounds or so, about 4,000 (1.3%) were called active. Shown is part of a subset that was picked to be rich in actives.
measured_metric: inhibition (%)

> print(dat)
                                  structure  recorded.number
1  Cc1ccnc2nc(C(=O)Nc3nnc(-c4ccccc4)o3)nn12             1.08
2  CC(=O)Nc1cccc(C(=O)OCC(=O)Nc2nnc(-c3ccccc3)o2)c1             13.3
3  CCCCN(CC)C(=S)Nc1ccc2nc3n(c(=O)c2c1)CCCCC3              2.4
4  O=C(COC(=O)CSc1nnc(-c2ccc(Cl)cc2)o1)Nc1cc(Cl)cc(Cl)c1             3.37
5      Cc1cccc(NC(=O)Nc2nnc(-c3ccccc3)o2)c1               15
6  O=C(COC(=O)c1ccc(Oc2ccccc2)cc1)Nc1nnc(-c2ccccc2)o1             79.8

====

# assay_protocol: kanamycin survival loss of SKKanGAS strain – BacTiter-Glo luminescence, streptokinase expression inhibitor project, primary screen (AID 1662);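 note: strain carries kanamycin resistance gene driven by streptokinase promoter and grows in 40 µg/ml kanamycin; loss of luminescence reflects streptokinase promoter inhibition or plain growth inhibition; 0% = median of DMSO wells and 100% = positive control at its reference dose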
# condition_notes: S. pyogenes SKKanGAS, kanamycin growth, 6 h, at 7.5 µM
Hit rate of the full screen: of about 300,000 compounds, about 4,000 (1.3%) were called active.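 Rule for the calls: active = mean replicate score, as percent of positive control median, at least 50; inconclusive = mean below 50 but one replicate at or above 50; inactive = mean and every replicate below 50.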 The sample holds actives, similar compounds and a random draw of the others, so the mix is not that of the screen.
Outcome codes: active, inactive

> print(dat)
                                    compound  label.value
 1      c1ccc(-c2nc(NCc3ccco3)c3ccccc3n2)cc1     inactive
 2  COc1ccc(CCNC(=O)CSc2nc3[nH]ncc3c(=O)n2-c2cccc(C(F)(F)F)c2)cc1OC     inactive
 3        COc1ccc(Sc2nc(-c3ccccc3)ncc2OC)cc1     inactive
 4  Cc1ccc2cccc(S(=O)(=O)N3CCN(c4ccccc4F)CC3)c2n1     inactive
 5  CC1CCc2[nH]c3ccc(C(=O)N(C)CC(=O)Nc4cccc(F)c4)cc3c2C1 (configuration not stated)     inactive
 6  CC(C)C(=O)Nc1nnc(SCC(=O)N2C(C)CCCC2C)s1 (configuration not stated)     inactive
 7  N#C/C(=C(/O)Cc1cccc2ccccc12)c1nc2ccccc2s1       active
 8  NS(=O)(=O)c1ccc(NC(=S)NC(=O)c2cccc(Br)c2)cc1     inactive
 9  CC(=O)Nc1ccc(-c2csc(NC(=O)Nc3ccccc3)n2)cc1     inactive
10  CCCc1cc(=O)[nH]c2nnc(SCC(=O)Nc3nnc(SCC)s3)n12     inactive
11  O=C(NCC(c1cccs1)N1CCOCC1)c1cc(-c2ccccn2)nc2ccccc12 (configuration not stated)     inactive
12  N#Cc1ccc(Oc2cc(C(F)(F)F)nc(-c3ccccn3)n2)cc1     inactive
13  CN(c1ccccc1)S(=O)(=O)c1ccc(Cl)c(C(=O)NCCc2c[nH]c3ccccc23)c1     inactive
14      Cc1ccc2nnn(Cc3cccc(C(C)(C)C)c3O)c2c1     inactive
15         COc1ccc(Cc2nc(-c3ccccn3)no2)cc1OC     inactive
16  COC(=O)C1=C(C)NC2=C(C(=O)c3ccccc32)C1c1ccc(-c2ccc(C(=O)O)cc2)o1 (configuration not stated)       active
17  CCCCCN(C(=O)CCC(=O)OCCOc1ccc(OC)cc1)c1c(N)n(CCCC)c(=O)[nH]c1=O     inactive
18  COc1ccc(-n2cnnc2SCC(=O)Nc2cccc([N+](=O)[O-])c2)cc1     inactive
19  CCOC(=O)c1ccc(Nc2cc3ccccc3c(=O)[nH]2)cc1     inactive
20            Oc1ccc(CN2CCN(c3ncccn3)CC2)cc1     inactive
21  COc1ccccc1C(=O)NCCC(=O)NN1C(=O)NC2(CCCCC2)C1=O     inactive
22  CCN(CC)S(=O)(=O)c1ccc(N2CCOCC2)c(NC(=O)C2CSC3(C)CCC(=O)N23)c1 (configuration not stated)       active

These data points were gathered from PubChem BioAssay AID1662.
